Origin of values: ChEMBL document CHEMBL4392853

experiment: Drug reactivity against cysteine in PBS buffer by NMR assay
Activity calls are given as the source filed them. The rule behind the calls is not given here.
Log the outcome using a class from active, inactive

// param item: N#Cc1ccccc1 ; yields the recorded call
inactive

Assay outcome for CC1(C)S[C@@H]2[C@H](N)C(=O)N2[C@H]1C(=O)O : what was it?
inactive

Test call, this compound: O=C(c1ccccc1)C(F)(F)F
inactive

Query: recorded result category for C=CC(=O)c1ccccc1 in this test
active

Tell me the recorded outcome of this test for COC(=O)Nc1ccccc1 .
active

Hey, what did the test say about C=CS(=O)(=O)Nc1ccccc1 ?
active

// param item: OB1OCc2ccccc21 ; yields the recorded call
inactive

Given O=S(=O)(F)c1ccccc1 , state the outcome it received in this test.
active

Kindly provide the recorded test outcome for the following compound: C#CC(=O)c1ccccc1
active

Dear colleague, could you share the recorded outcome for CN(C)C/C=C/C(=O)Nc1ccccc1 when you have a moment?
active

Tell me the assay call for N#Cc1ccccn1 please.
inactive

Which outcome was entered for the compound O=C1CCN1c1ccccc1 in this test?
inactive

* * *

experiment: Drug reactivity against serine in PBS buffer by NMR assay
Calls of active or inactive are those of the source. The rule behind the calls is not given here.
Field 'call' accepts active, inactive

Assay result, entry CC1(C)S[C@@H]2[C@H](N)C(=O)N2[C@H]1C(=O)O — outcome?
inactive

Per the assay record, what outcome was assigned to C=CS(=O)(=O)Nc1ccccc1 ?
active

Recorded call for c1ccc(C2CO2)cc1 (centres undefined) ?
active

Lab log entry: C=CC(=O)Nc1ccccc1 — outcome as called in the assay?
active

For C=CC(=O)c1ccccc1 , what call appears in the results of this test?
active

Write down the call the test reported for this compound. Item: N#Cc1ccccc1
inactive

Test call for this compound, please: O=S(=O)(F)c1ccccc1
active

Just curious, what result did O=C1CC(c2ccccc2)N1 (centres undefined) get here?
inactive

Would you mind telling me which call this test gave N#Cc1ncccn1 ?
active
